Kindly state MIC for each of the entries shown.
- Test system: Streptococcus pneumoniae
- TEST_SUMMARY: Antibacterial activity against erythromycin-resistant Streptococcus pneumoniae AB11 expressing ermB and me/A genes by standard broth microdilution method
- Format: functional

Consider the compound shown here: CC[C@H]1OC(=O)[C@H](C)C(=O)[C@H](C)[C@@H](O[C@H]2O[C@@H](C)C[C@@H](N(C)C)[C@@H]2O)[C@](C)(OC)C[C@@H](C)C(=O)[C@H](C)[C@@H](OC(=O)NCCCn2cc(-c3ccccc3)nn2)[C@]1(C)O What is its recorded MIC?
64 µg/mL

Please report the recorded MIC for CC[C@H]1OC(=O)[C@H](C)C(=O)[C@H](C)[C@@H](O[C@H]2O[C@@H](C)C[C@@H](N(C)C)[C@@H]2O)[C@](C)(OC)C[C@@H](C)C(=O)[C@H](C)[C@@H](OC(=O)NCCCn2cc(-c3ccccc3OC)nn2)[C@]1(C)O .
32 µg/mL

Fill in: MIC of CC[C@H]1OC(=O)[C@H](C)C(=O)[C@H](C)[C@@H](O[C@H]2O[C@@H](C)C[C@@H](N(C)C)[C@@H]2O)[C@](C)(OC)C[C@@H](C)C(=O)[C@H](C)[C@@H](OC(=O)NCCn2cc(-c3ccccc3OC)nn2)[C@]1(C)O is ___
> 256 µg/mL

Using the record for CC[C@H]1OC(=O)[C@H](C)C(=O)[C@H](C)[C@@H](O[C@H]2O[C@@H](C)C[C@@H](N(C)C)[C@@H]2O)[C@](C)(OC)C[C@@H](C)C(=O)[C@H](C)[C@@H](OC(=O)NCCn2cc(-c3ccc(-c4ccccc4)cc3)nn2)[C@]1(C)O , report its MIC.
64 µg/mL

Quick one: MIC of CC[C@H]1OC(=O)[C@H](C)C(=O)[C@H](C)[C@@H](O[C@H]2O[C@@H](C)C[C@@H](N(C)C)[C@@H]2O)[C@](C)(OC)C[C@@H](C)C(=O)[C@H](C)[C@@H](OC(=O)NCCn2cc(-c3cccc(Br)c3)nn2)[C@]1(C)O ?
128 µg/mL

What does the record list as MIC for CC[C@H]1OC(=O)[C@H](C)[C@@H](O[C@H]2C[C@@](C)(OC)[C@@H](O)[C@H](C)O2)[C@H](C)[C@@H](O[C@@H]2O[C@H](C)C[C@H](N(C)C)[C@H]2O)[C@](C)(O)C[C@@H](C)CN(C)[C@H](C)[C@@H](O)[C@]1(C)O ?
256 µg/mL

Which MIC value is on record for CCOc1ccc(-c2cn(CCNC(=O)O[C@@H]3[C@@H](C)C(=O)[C@H](C)C[C@@](C)(OC)[C@H](O[C@H]4O[C@@H](C)C[C@@H](N(C)C)[C@@H]4O)[C@@H](C)C(=O)[C@@H](C)C(=O)O[C@H](CC)[C@@]3(C)O)nn2)cc1 ?
256 µg/mL

MIC for CC[C@H]1OC(=O)[C@H](C)C(=O)[C@H](C)[C@@H](O[C@H]2O[C@@H](C)C[C@@H](N(C)C)[C@@H]2O)[C@](C)(OC)C[C@@H](C)C(=O)[C@H](C)[C@@H](OC(=O)NCCCn2cc(-c3ccc(C(C)(C)C)cc3)nn2)[C@]1(C)O ?
64 µg/mL

---

Kindly state MIC for each of the entries shown.
- System: Staphylococcus aureus
- TEST_SUMMARY: Antibacterial activity against erythromycin-susceptible Staphylococcus aureus ATCC 25923 by standard broth microdilution method
- Format: functional

Tell me the measured MIC of CC[C@H]1OC(=O)[C@H](C)C(=O)[C@H](C)[C@@H](O[C@H]2O[C@@H](C)C[C@@H](N(C)C)[C@@H]2O)[C@](C)(OC)C[C@@H](C)C(=O)[C@H](C)[C@@H](OC(=O)NCCn2cc(-c3ccc(C)cc3)nn2)[C@]1(C)O , please.
32 µg/mL

So what does the record say about MIC for CC[C@H]1OC(=O)[C@H](C)[C@@H](O[C@H]2C[C@@](C)(OC)[C@@H](O)[C@H](C)O2)[C@H](C)[C@@H](O[C@@H]2O[C@H](C)C[C@H](N(C)C)[C@H]2O)[C@](C)(O)C[C@@H](C)CN(C)[C@H](C)[C@@H](O)[C@]1(C)O ?
0.25 µg/mL

Please give the measured MIC for this molecule: CC[C@H]1OC(=O)[C@H](C)C(=O)[C@H](C)[C@@H](O[C@H]2O[C@@H](C)C[C@@H](N(C)C)[C@@H]2O)[C@](C)(OC)C[C@@H](C)C(=O)[C@H](C)[C@@H](OC(=O)NCCn2cc(-c3ccc([N+](=O)[O-])cc3)nn2)[C@]1(C)O
16 µg/mL

Fill in the blank: the reported MIC of CC[C@H]1OC(=O)[C@H](C)C(=O)[C@H](C)[C@@H](O[C@H]2O[C@@H](C)C[C@@H](N(C)C)[C@@H]2O)[C@](C)(OC)C[C@@H](C)C(=O)[C@H](C)[C@@H](OC(=O)NCCCn2cc(-c3ccccc3OC)nn2)[C@]1(C)O is ____.
8 µg/mL
